System: A498 renal
Test: NCI-60 one-dose screen, 48 h (100 = growth as untreated, 0 = no growth, -100 = all killed)
Conditions: 10 µM unless noted
The panel holds about 83,000 compounds, 20% with a hit somewhere; the sample as a whole holds those more often.
test.readout: growth (%)
Give a bare numeral; the unit % is implied.

Please review the entries below; each comes with its answer.
compound	test.readout	assay.value
Cc1nn(-c2ccc(Cl)cc2)c2nc3c(nc12)c(=O)oc1ccccc13	growth	95
Cc1cc(=O)n2n1-c1ccc(Cl)cc1NC(=O)C2	growth	119
Nc1ccc2c3c(cccc13)-c1ccccc1-2	growth	85.9
COc1ccc2c(c1)C(=O)c1c-2c(OCCCN(C)C)nc2cc(Br)ccc12	growth	76.3
COc1ccc2c(c1)C(=O)/C(=C/c1cccc(OCC(=O)c3ccccc3)c1)CC2	growth	89.2

Input: What growth value was documented for this compound, COc1ccc(Cn2c(NCCCN(C)C)nc(=O)n(Cc3ccc(F)cc3)c2=O)cc1 ?
Output: 95.6

Input: Now this one: O=C1OCCCCCCCCCC#Cc2ccccc21
Output: 98.3

====

Test system: OVCAR-8 ovarian
Experiment: NCI-60 one-dose screen, 48 h
Conditions: 10 µM unless noted
This is part of a sample that, as a whole, favours compounds with a hit. Of some 83,000 tested, about 20% had one in any assay. Activity calls are given as the source filed them. The calls were made as follows: active = growth percent below 10; inactive = the rest.
Allowed answers: T (active), F (inactive)

Input: Answer briefly: the call reported for CN(C)c1cccc2c(S(=O)(=O)N[C@H]3CC[C@H]4[C@@H]5CCc6cc(O)ccc6[C@H]5CC[C@]34C)cccc12 in this assay.
Output: F

Input: Now this one: N#Cc1c(N)[nH]c(S)c1C#N
Output: F

====

System: SK-MEL-2 melanoma
Assay: NCI-60 one-dose screen, 48 h (100 = growth as untreated, 0 = no growth, -100 = all killed)
Settings: 10 µM unless noted
About 83,000 compounds went through this panel and 20% of them were active in at least one assay; those are over-represented in the sample as a whole.
test.readout: growth (%)
Give a bare numeral; the unit % is implied.

Please review the entries below; each comes with its answer.
compound	target.of.assay	readout.units	growth
COc1cc(NC(=O)c2cc3ccccc3cc2O)c(OC)cc1Cl	SK-MEL-2 melanoma	%	-17.2
NC(=O)c1ccccc1NC(=O)c1ccccc1Cl	SK-MEL-2 melanoma	%	129
COc1cc(C2NC(c3ccc(Cl)cc3)C(C)C(=NC(=O)c3cnccn3)C2C)cc(OC)c1OC (configuration not stated)	SK-MEL-2 melanoma	%	97.3
CCCCCCCC/C=C/CCCCCCCC1=NC(C)(C)CN1CC(C)O (configuration not stated)	SK-MEL-2 melanoma	%	33
S=C1SCN(Cc2ccccc2)CN1Cc1ccco1	SK-MEL-2 melanoma	%	81.1
NC(=O)NN=C(C1CC1)C1CC1	SK-MEL-2 melanoma	%	110
CCOC(=O)c1c(NC(=O)C2CCCCC2C(=O)O)sc2c1CCCC2 (configuration not stated)	SK-MEL-2 melanoma	%	107
O=C(CSCC(=O)N/N=C/c1ccccc1O)N/N=C\c1ccccc1O	SK-MEL-2 melanoma	%	16.7
Nc1nc(Cl)c2[nH]cnc2n1	SK-MEL-2 melanoma	%	85.4
COc1cccc2c1O/C(=C\c1c([N+](=O)[O-])ncn1C)C2=O	SK-MEL-2 melanoma	%	97.6

Input: What growth appears in the records for this compound with SK-MEL-2 melanoma? Cc1cc(=O)n2n1-c1ccc(Cl)cc1NC(=O)C2
Output: 118

Input: Now this one: c1cnc2n[nH]c(Nc3ncnc4c3sc3ncccc34)c2c1
Output: 103

Cited source for all entries: PubChem BioAssay (NCI)
